Procedure Text: Binding affinity at ROCK
Parameter Measured: Ki (nM)
Answer format: numeric, nM implied, no suffix.

Q: Given the entry Cc1cncc2cccc(S(=O)(=O)N3CCCNC[C@@H]3C)c12 , report its measured Ki.
A: 1.6

* * *

Assignment: determine reported Ki for the given compounds.
Experimental Target: Myosin light chain kinase, smooth muscle (Homo sapiens)
Sequence (Q15746 whole entry): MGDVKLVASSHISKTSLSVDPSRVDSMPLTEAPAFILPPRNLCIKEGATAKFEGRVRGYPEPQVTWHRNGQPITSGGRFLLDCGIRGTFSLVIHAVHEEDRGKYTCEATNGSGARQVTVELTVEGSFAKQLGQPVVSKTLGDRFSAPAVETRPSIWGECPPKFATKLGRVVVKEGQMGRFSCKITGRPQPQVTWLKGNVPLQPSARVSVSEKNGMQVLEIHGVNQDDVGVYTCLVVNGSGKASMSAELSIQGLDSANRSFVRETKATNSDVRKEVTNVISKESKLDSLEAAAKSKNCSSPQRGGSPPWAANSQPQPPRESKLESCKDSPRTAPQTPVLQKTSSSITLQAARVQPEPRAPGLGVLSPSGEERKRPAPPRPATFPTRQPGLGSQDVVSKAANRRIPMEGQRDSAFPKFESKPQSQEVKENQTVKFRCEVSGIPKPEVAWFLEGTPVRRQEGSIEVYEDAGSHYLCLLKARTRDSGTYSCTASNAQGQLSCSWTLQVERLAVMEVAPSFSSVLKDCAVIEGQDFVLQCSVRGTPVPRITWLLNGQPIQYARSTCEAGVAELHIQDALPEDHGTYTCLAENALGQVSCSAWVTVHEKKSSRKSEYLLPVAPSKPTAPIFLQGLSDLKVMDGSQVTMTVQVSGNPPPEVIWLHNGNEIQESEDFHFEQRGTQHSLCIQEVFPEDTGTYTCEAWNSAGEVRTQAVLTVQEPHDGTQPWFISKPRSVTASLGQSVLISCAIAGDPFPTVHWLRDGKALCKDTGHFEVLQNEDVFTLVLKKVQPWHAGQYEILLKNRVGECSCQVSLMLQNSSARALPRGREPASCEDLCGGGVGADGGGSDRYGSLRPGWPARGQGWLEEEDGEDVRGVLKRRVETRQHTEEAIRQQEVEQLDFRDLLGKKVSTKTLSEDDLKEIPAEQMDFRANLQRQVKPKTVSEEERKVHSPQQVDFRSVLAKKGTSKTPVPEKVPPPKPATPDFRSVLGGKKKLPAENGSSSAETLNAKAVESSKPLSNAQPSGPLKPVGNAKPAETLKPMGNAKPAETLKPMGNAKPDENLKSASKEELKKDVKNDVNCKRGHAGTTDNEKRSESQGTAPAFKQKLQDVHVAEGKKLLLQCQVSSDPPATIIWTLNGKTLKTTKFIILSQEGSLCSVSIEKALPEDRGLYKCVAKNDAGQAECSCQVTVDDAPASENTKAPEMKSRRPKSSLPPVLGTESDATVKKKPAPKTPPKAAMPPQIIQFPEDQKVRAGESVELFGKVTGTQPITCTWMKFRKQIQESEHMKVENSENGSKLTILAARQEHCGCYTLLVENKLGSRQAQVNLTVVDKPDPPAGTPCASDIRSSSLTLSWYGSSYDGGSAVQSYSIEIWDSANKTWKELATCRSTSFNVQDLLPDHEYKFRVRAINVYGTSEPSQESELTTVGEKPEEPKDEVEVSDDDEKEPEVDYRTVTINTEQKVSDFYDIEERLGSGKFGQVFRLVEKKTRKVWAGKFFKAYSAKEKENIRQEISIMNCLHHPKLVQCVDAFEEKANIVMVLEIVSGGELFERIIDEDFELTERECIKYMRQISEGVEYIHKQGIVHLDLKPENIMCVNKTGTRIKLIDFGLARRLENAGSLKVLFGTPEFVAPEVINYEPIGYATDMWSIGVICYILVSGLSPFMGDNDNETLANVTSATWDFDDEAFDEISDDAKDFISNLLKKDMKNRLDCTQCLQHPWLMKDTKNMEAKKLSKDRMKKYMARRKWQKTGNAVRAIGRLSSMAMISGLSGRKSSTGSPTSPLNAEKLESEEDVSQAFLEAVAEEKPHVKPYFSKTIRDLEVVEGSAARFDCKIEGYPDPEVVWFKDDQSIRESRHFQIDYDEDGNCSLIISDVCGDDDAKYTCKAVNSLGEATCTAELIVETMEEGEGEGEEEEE
Procedure Text: Inhibition of myosin light chain kinase
Answer format: numeric, µM implied, no suffix.

Q: Can you look up Ki on Myosin light chain kinase, smooth muscle (Homo sapiens) for O=S(=O)(c1cccc2c(Cl)cccc12)N1CCCNCC1 ?
A: 3.8

Q: Can you look up Ki on Myosin light chain kinase, smooth muscle (Homo sapiens) for NCCNS(=O)(=O)c1cccc2c(Cl)cccc12 ?
A: 7.4
